Taken from ChEMBL document CHEMBL1201862.

Kindly state GI50 for each of the entries shown.
- System: U-251
- run_description: NCI tumour cell line growth inhibition, 48 h
The source made the active and inactive calls. No stated cut-off is given here; in the data, active = GI50 up to about 1.1 µM and inactive = higher.

Solved entries (count: 4):
Cc1cc2c(c(=O)n1C)SCC2 :: > 100 µM (inactive)
CCOC(=O)Cc1csc(Nc2ccccc2[N+](=O)[O-])n1 :: > 100 µM (inactive)
O=C(CCNC(=O)OCc1ccccc1)OCCCNC(=O)OCc1ccccc1 :: > 100 µM (inactive)
Nc1nc(Cl)nc2c1ncn2C1CC(O)C(CO)O1 (configuration not stated) :: 10.4 µM (inactive)

Respectfully, I request GI50 for each entry included below.
1. c1ccc2c(c1)CCc1c-2n(CCN2CCOCC2)c2ccccc12
2. CCc1cccc(C)c1NC(=O)CCc1n[nH]c(=S)o1
3. O=C1C=C(Nc2cccnc2)c2ccccc2C1=O
4. C=CCNC(=S)N1CC(C)C(=O)Nc2ccccc21 (configuration not stated)

output:
> 100 µM (inactive)
> 100 µM (inactive)
9.25 µM (inactive)
> 100 µM (inactive)

Respectfully, I request GI50 for each entry included below.
1. Cc1cccc(C(C)(C)C)c1NC(=O)CCc1n[nH]c(=S)o1
2. Cc1nc2ccc(S(=O)(=O)Nc3ccccc3)cc2c(=O)n1NC(=O)CNc1ccccc1

output:
> 100 µM (inactive)
> 100 µM (inactive)

Respectfully, I request GI50 for each entry included below.
1. CC1(C)N=c2c(ncn2CCCO)=C(C(N)=O)N1
2. CSC(=O)/C=C1\SS/C(=C\C(=O)SC)S1

output:
["> 100 µM (inactive)", "2.14 µM (inactive)"]
